test system: L1210 leukemia ip in BDF1 mice, survival T/C; experiment: NCI In Vivo Anticancer Drug Screen. Data for tumor model L1210 Leukemia (intraperitoneal) in B6D2F1 (BDF1) mice; details: endpoint: mean survival time; dose: 50.0 mg/kg/injection; schedule: Q01DX009 (ip); vehicle: saline; higher = longer survival
Toxic doses and inconclusive results are not listed.
So I've got a bunch of molecules here, and I need their T/C values.

molecule=Cc1cc2nc(CN)[nH]c2cc1C targetundertest="L1210 leukemia ip in BDF1 mice, survival T/C" reportedresult="98 % of control"
molecule="CC(C)C(N)C(=O)NO (centres undefined)" targetundertest="L1210 leukemia ip in BDF1 mice, survival T/C" reportedresult="95 % of control"
molecule=c1ccc(OP2OCCO2)cc1 targetundertest="L1210 leukemia ip in BDF1 mice, survival T/C" reportedresult="92 % of control"
molecule=CN(C)CCC(=O)c1ccccc1 targetundertest="L1210 leukemia ip in BDF1 mice, survival T/C" reportedresult="98 % of control"
molecule="Cc1cn(C2CC(CO)CC2O)c(=O)[nH]c1=O (centres undefined)" targetundertest="L1210 leukemia ip in BDF1 mice, survival T/C" reportedresult="104 % of control"

Could I get T/C for every one of these entries?
1. CCN(CC)CCSC(=O)c1ccccc1
2. CC1CNC(=O)O1 (centres undefined)
3. NCCCC1C(CN)C2CC1C1C3CCC(C3)C21 (centres undefined)
4. CCC(C)CNCCO (centres undefined)

1. 94 % of control
2. 97 % of control
3. 106 % of control
4. 92 % of control
